- Tested on: Staphylococcus aureus
- methodDescription: Antibacterial activity against PVL-positive and non-typable methicillin-resistant Staphylococcus aureus 1110301981H-T034 after 24 hrs by broth dilution method
- Assay type: functional

{"compoundSmiles": "CC(C)(C)[C@@H]1NC(=O)[C@H](CCCN)NC(=O)[C@@H]2CCCN2C(=O)[C@@H](Cc2ccccc2)NC(=O)[C@H](CCCN)NC(=O)[C@H](C(C)(C)C)NC(=O)[C@H](CCCN)NC(=O)[C@@H]2CCCN2C(=O)[C@@H](Cc2ccccc2)NC(=O)[C@H](CCCN)NC1=O", "MIC": "> 64 µg/mL"}
{"compoundSmiles": "CC(C)C[C@@H]1NC(=O)[C@H](CCCN)NC(=O)[C@@H]2CCCN2C(=O)[C@@H](Cc2ccccc2)NC(=O)[C@H](CCCN)NC(=O)[C@H](CC(C)(C)C)NC(=O)[C@H](CCCN)NC(=O)[C@@H]2CCCN2C(=O)[C@@H](Cc2ccccc2)NC(=O)[C@H](CCCN)NC1=O", "MIC": "> 64 µg/mL"}
{"compoundSmiles": "CCCCCCCCCC[C@@H]1NC(=O)[C@H](CCCN)NC(=O)[C@@H]2CCCN2C(=O)[C@@H](Cc2ccccc2)NC(=O)[C@H](CCCN)NC(=O)[C@H](CCCCCCCCCC)NC(=O)[C@H](CCCN)NC(=O)[C@@H]2CCCN2C(=O)[C@@H](Cc2ccccc2)NC(=O)[C@H](CCCN)NC1=O", "MIC": "64 µg/mL"}
{"compoundSmiles": "CC(C)C[C@@H]1NC(=O)[C@H](CCCN)NC(=O)[C@@H]2CCCN2C(=O)[C@@H](Cc2ccccc2)NC(=O)[C@H](CCCN)NC(=O)[C@H](CC23CC4CC(CC(C4)C2)C3)NC(=O)[C@H](CCCN)NC(=O)[C@@H]2CCCN2C(=O)[C@@H](Cc2ccccc2)NC(=O)[C@H](CCCN)NC1=O", "MIC": "64 µg/mL"}

---

- Test system: Staphylococcus aureus
- methodDescription: Antibacterial activity against Staphylococcus aureus ATCC 29213 after 24 hrs by broth dilution method
- Assay type: functional
- conditionLabel: ATCC 29213, 24 h
Square brackets hold non-standard residues; d marks the D form. Peptide text beside a SMILES is read from it. Gly(1-adamantyl) = N[C@H](C(=O)O)C12CC3CC(CC(C3)C1)C2; Orn = NCCC[C@H](N)C(=O)O
experimentalReadout: MIC (µg/mL)

{"compound": "CC(C)[C@@H]1NC(=O)[C@H](CCCN)NC(=O)[C@@H]2CCCN2C(=O)[C@@H](Cc2ccccc2)NC(=O)[C@H](CCCN)NC(=O)[C@H](C(C)(C)C)NC(=O)[C@H](CCCN)NC(=O)[C@@H]2CCCN2C(=O)[C@@H](Cc2ccccc2)NC(=O)[C@H](CCCN)NC1=O", "experimentalReadout": "MIC", "readoutRelation": ">", "observedMeasurement": 64}
{"compound": "CCCCCCCCCC[C@@H]1NC(=O)[C@H](CCCN)NC(=O)[C@@H]2CCCN2C(=O)[C@@H](Cc2ccccc2)NC(=O)[C@H](CCCN)NC(=O)[C@H](CCCCCCCCCC)NC(=O)[C@H](CCCN)NC(=O)[C@@H]2CCCN2C(=O)[C@@H](Cc2ccccc2)NC(=O)[C@H](CCCN)NC1=O", "experimentalReadout": "MIC", "readoutRelation": "=", "observedMeasurement": 64}
{"compound": "NCCC[C@@H]1NC(=O)[C@H](C23CC4CC(CC(C4)C2)C3)NC(=O)[C@H](CCCN)NC(=O)[C@@H]2CCCN2C(=O)[C@@H](Cc2ccccc2)NC(=O)[C@H](CCCN)NC(=O)[C@H](C23CC4CC(CC(C4)C2)C3)NC(=O)[C@H](CCCN)NC(=O)[C@@H]2CCCN2C(=O)[C@@H](Cc2ccccc2)NC1=O (cyclo([Orn][dF]P[Orn][Gly(1-adamantyl)][Orn][dF]P[Orn][Gly(1-adamantyl)]))", "experimentalReadout": "MIC", "readoutRelation": "=", "observedMeasurement": 8}

---

- Test system: Staphylococcus epidermidis
- methodDescription: Antibacterial activity against Staphylococcus epidermidis ATCC 12228 after 24 hrs by broth dilution method
- Assay type: functional
- conditionLabel: ATCC 12228, 24 h
Square brackets hold non-standard residues; d marks the D form. Peptide text beside a SMILES is read from it. Orn = NCCC[C@H](N)C(=O)O
experimentalReadout: MIC (µg/mL)

{"compound": "CC(C)[C@@H]1NC(=O)[C@H](CCCN)NC(=O)[C@@H]2CCCN2C(=O)[C@@H](Cc2ccccc2)NC(=O)[C@H](CCCN)NC(=O)[C@H](C23CC4CC(CC(C4)C2)C3)NC(=O)[C@H](CCCN)NC(=O)[C@@H]2CCCN2C(=O)[C@@H](Cc2ccccc2)NC(=O)[C@H](CCCN)NC1=O", "experimentalReadout": "MIC", "quantityUnit": "µg/mL", "observedMeasurement": 16}
{"compound": "CC(C)C[C@@H]1NC(=O)[C@H](CCCN)NC(=O)[C@H](C(C)C)NC(=O)[C@@H]2CCCN2C(=O)[C@@H](Cc2ccccc2)NC(=O)[C@H](CC(C)C)NC(=O)[C@H](CCCN)NC(=O)[C@H](C(C)C)NC(=O)[C@@H]2CCCN2C(=O)[C@@H](Cc2ccccc2)NC1=O [GRAMICIDIN S] (cyclo(L[dF]PV[Orn]L[dF]PV[Orn]))", "experimentalReadout": "MIC", "quantityUnit": "µg/mL", "observedMeasurement": 8}
{"compound": "CC(C)(C)[C@@H]1NC(=O)[C@H](CCCN)NC(=O)[C@@H]2CCCN2C(=O)[C@@H](Cc2ccccc2)NC(=O)[C@H](CCCN)NC(=O)[C@H](C23CC4CC(CC(C4)C2)C3)NC(=O)[C@H](CCCN)NC(=O)[C@@H]2CCCN2C(=O)[C@@H](Cc2ccccc2)NC(=O)[C@H](CCCN)NC1=O", "experimentalReadout": "MIC", "quantityUnit": "µg/mL", "observedMeasurement": 4}
{"compound": "CC(C)(C)C[C@@H]1NC(=O)[C@H](CCCN)NC(=O)[C@@H]2CCCN2C(=O)[C@@H](Cc2ccccc2)NC(=O)[C@H](CCCN)NC(=O)[C@H](CC(C)(C)C)NC(=O)[C@H](CCCN)NC(=O)[C@@H]2CCCN2C(=O)[C@@H](Cc2ccccc2)NC(=O)[C@H](CCCN)NC1=O", "experimentalReadout": "MIC", "quantityUnit": "µg/mL", "observedMeasurement": 16}
{"compound": "CC(C)[C@@H]1NC(=O)[C@H](CCCN)NC(=O)[C@@H]2CCCN2C(=O)[C@@H](Cc2ccccc2)NC(=O)[C@H](CCCN)NC(=O)[C@H](C(C)C)NC(=O)[C@H](CCCN)NC(=O)[C@@H]2CCCN2C(=O)[C@@H](Cc2ccccc2)NC(=O)[C@H](CCCN)NC1=O", "experimentalReadout": "MIC", "quantityUnit": "µg/mL", "observedMeasurement": 64}

---

The entries below come with measured MIC values attached.
- Test system: Staphylococcus aureus
- methodDescription: Antibacterial activity against PVL-deficient and non-typable methicillin-resistant Staphylococcus aureus N229-T034 after 24 hrs by broth dilution method
- Type: functional
- conditionLabel: N229-T034, 24 h
Square brackets hold non-standard residues; d marks the D form. Peptide text beside a SMILES is read from it. Gly(1-adamantyl) = N[C@H](C(=O)O)C12CC3CC(CC(C3)C1)C2; Orn = NCCC[C@H](N)C(=O)O

{"molecule": "NCCC[C@@H]1NC(=O)[C@H](C23CC4CC(CC(C4)C2)C3)NC(=O)[C@H](CCCN)NC(=O)[C@@H]2CCCN2C(=O)[C@@H](Cc2ccccc2)NC(=O)[C@H](CCCN)NC(=O)[C@H](C23CC4CC(CC(C4)C2)C3)NC(=O)[C@H](CCCN)NC(=O)[C@@H]2CCCN2C(=O)[C@@H](Cc2ccccc2)NC1=O (cyclo([Orn][dF]P[Orn][Gly(1-adamantyl)][Orn][dF]P[Orn][Gly(1-adamantyl)]))", "readoutRelation": "=", "MIC, µg/mL": 8}
{"molecule": "CC(C)(C)C[C@@H]1NC(=O)[C@H](CCCN)NC(=O)[C@@H]2CCCN2C(=O)[C@@H](Cc2ccccc2)NC(=O)[C@H](CCCN)NC(=O)[C@H](CC(C)(C)C)NC(=O)[C@H](CCCN)NC(=O)[C@@H]2CCCN2C(=O)[C@@H](Cc2ccccc2)NC(=O)[C@H](CCCN)NC1=O", "readoutRelation": ">", "MIC, µg/mL": 64}
{"molecule": "CCCCCCCCCC[C@@H]1NC(=O)[C@H](CCCN)NC(=O)[C@@H]2CCCN2C(=O)[C@@H](Cc2ccccc2)NC(=O)[C@H](CCCN)NC(=O)[C@H](CCCCCCCCCC)NC(=O)[C@H](CCCN)NC(=O)[C@@H]2CCCN2C(=O)[C@@H](Cc2ccccc2)NC(=O)[C@H](CCCN)NC1=O", "readoutRelation": "=", "MIC, µg/mL": 64}
